- Test system: MDA-MB-435 melanoma
- measurement_protocol: NCI-60 one-dose screen, 48 h (100 = growth as untreated, 0 = no growth, -100 = all killed)
- run_parameters: 10 µM unless noted
About 83,000 compounds went through this panel and 20% of them were active in at least one assay; those are over-represented in the sample as a whole.
reported_property: growth (%)
Just the number please, in %, no unit attached.

query: Query: growth; subject: C/C(=N\Nc1cc(C)nc2ccc(Br)cc12)c1ccc([N+](=O)[O-])cc1
result: 72.6

query: Data request, read-out growth, for Cc1cc2c(c(C)c1Cl)C(=O)/C(=C/c1ccc(O)c(O)c1)O2
result: 106

query: # lookup: growth of CC1=C(C(=O)/C=C/c2ccc(N(C)C)cc2)C(c2ccccc2)NC(=S)N1 (centres undefined)
result: 102

query: Request the reported growth associated with COc1cc2nc(-c3ccc(C(F)(F)F)cc3)cc(OCCCN3CCOCC3)c2cc1OC
result: -26

query: Please give the measured growth for this molecule: O=S(=O)(NCCNc1nccc(-c2c(-c3cccc(O)c3)nc3occn23)n1)c1ccc(Cl)cc1
result: 45.4

query: Param item = COc1cc2c(c(OC)c1OC)CCC(c1cccc(NC(=O)c3cccc(Br)c3)c1)O2 (centres undefined) ; retrieve measured growth.
result: 87.4

query: I would be grateful if you could share the reported growth for CC(C)(C)c1cc(C=O)cc(C(C)(C)C)c1O .
result: 111

query: Name the reported growth value associated with the molecule ClC1=C(Br)C(Br)(Br)C(=C(Br)Br)C1(Br)Br
result: 107

query: What does the record list as growth for N#C/C(=C\c1ccc(C(F)(F)F)cc1)c1cc2ccccc2[nH]1 ?
result: 97.1

query: Return reported growth; argument: Nc1c(C(=O)Nc2ccnc3ccccc23)sc2nc3c(cc12)CN(Cc1ccccc1)CC3
result: 73.6

query: I am curious: what growth value has been reported for CNCCOc1nc2c3cnccc3cc(-c3cc(OC)c(OC)c(OC)c3)c2c2ccncc12 ?
result: -90.1

query: What value of growth has been reported for the following molecule? O=[N+]([O-])c1ccc(N=Nc2cc(S(=O)(=O)O)c3cccc(S(=O)(=O)O)c3c2O)cc1
result: 86

query: Entry under review: O=C(Nc1ccc(F)cc1)Nc1ccc(NC(=O)c2cc(Cl)nc3ccccc23)cc1 . Reported growth?
result: 73.8

query: Value lookup for growth; key = COc1cc2oc(-c3cccc(C(=O)Nc4ccccc4)c3)cc(=O)c2c(O)c1OC
result: 58.3

query: Fill blank: measured growth of the molecule Nc1c(C(=O)Nc2cccc3cnccc23)sc2nc3c(cc12)C(=O)CCC3 is ____.
result: 7.12

query: Given the entry O=C1/C=C/[C@@H](O)[C@@H]2C[C@@H](O)C[C@H]2/C=C/CCC[C@H](CCc2cccc3ccccc23)O1 , report its measured growth.
result: 6.06

query: Give its growth value. Item: O=C(CCN1CCCC1)Nc1ccc2c(Nc3ccc(F)cc3)c3ccccc3nc2c1
result: -94.9

query: # query: growth of entry CC(c1ccccc1)C(C(=O)c1ccccc1)c1ccccc1 (centres undefined)
result: 110

query: Request the reported growth associated with O=C(C[n+]1cccc2ccccc21)c1ccc(O)c(O)c1
result: 88.1

query: For Cn1cc(CC2CC(=O)N(c3ccccc3)C2=O)sc1=NC(=O)c1ccccc1 (centres undefined) , what is its reported growth?
result: 101

query: Given CCCCCN1C=C/C(=C\C(=O)N(C)c2ccccc2Br)c2ccccc21 , state its recorded growth.
result: 99.4

query: Value lookup for growth; key = COc1ccc(C(=O)C2C(C#N)C(C#N)C3c4ccccc4C=CN23)cc1 (centres undefined)
result: 96.1

query: GET /values?readout=growth&item= Oc1c(Cl)cc(Cl)c(Cl)c1CNCCNCc1c(O)c(Cl)cc(Cl)c1Cl
result: 37.1

query: Need growth of COC(=O)c1ccc2c(c1)[n+](=O)c(C(C)=O)c(C(F)(F)F)n2[O-] , thanks.
result: 0.455

query: Query: growth; subject: O=C(CCN1CCCC1)Nc1ccc2c(Nc3ccc(Br)cc3)c3ccccc3nc2c1
result: -88

query: Find the recorded growth belonging to Cc1ccc(S(=O)(=O)NNC(=O)/C(=C\c2ccc(Cl)cc2)c2nc3ccccc3s2)cc1 and report it.
result: 96.9

query: Which measured growth value corresponds to NS(=O)(=O)c1ccc(Cn2c(SCC(=O)N/N=C/c3ccccc3O)nc3ccccc3c2=O)cc1 ?
result: 71.7

query: Consider the molecule shown here: CNC(=O)c1cccc(Cn2nc(C)c(NC(=O)c3ccc(COc4ccc(C(F)(F)F)cc4C)cc3)c2C)n1 What is its recorded growth?
result: 43.2

query: Look up growth for this molecule: N#C/C(=C\c1c(-c2ccccc2)[nH]c2ccccc12)C(=O)c1ccc(Cl)cc1
result: 13.5

query: Any idea what growth was measured for COc1cc2c(c(O)c1Cl)C(=O)c1c(O)cc(C[C@H](C)O)cc1[C@H]2[C@H]1c2cc(C[C@H](C)O)cc(O)c2C(=O)c2c1cc(OC)c(Cl)c2O ?
result: 11.3

query: Item CCC(=O)Oc1ccc(/C(=C(\C)c2ccccc2)c2ccc(OCCN3CCCCC3)cc2)cc1 has what recorded growth?
result: 81.4

query: I have this molecule here, CC(C)=CCC[C@](C)(O)[C@H]1CC[C@]2(C)[C@@H]1CC[C@@H]1[C@@]3(C)C/C(=C/c4ccccc4)C(=O)C(C)(C)[C@@H]3CC[C@]12C , and I need its recorded growth.
result: 90.3

query: Endpoint output: growth of O=Cc1ccc(-c2cn3ccnc3c(-c3ccc4ncn(Cc5ccccc5)c4c3)n2)cc1 . Value?
result: 87

query: Give its growth value. Item: CCCCCCOc1ccc(/C=N/Nc2cc(C)nc3ccc(Cl)cc23)cc1
result: -75.9

query: Can you share its growth? I mean this molecule: COc1ccc(NC(=O)c2cc(NCc3cc(O)ccc3O)ccc2O)cc1
result: 99.7

query: State the recorded growth for this entry: O=C(CSc1nc2ccccc2[nH]1)NCc1ccccc1
result: 95.8

query: Which growth is reported for this molecule? CC(Sc1nc2sc3c(c2c(=O)n1-c1ccc(Cl)cc1)CCCC3)C(=O)Nc1nc(-c2ccc(Br)cc2)cs1 (centres undefined)
result: 102

query: Entry Fc1ccc2c(-c3cncn3CCc3ccccc3)c[nH]c2c1 has what growth?
result: 93.2

query: Data request, read-out growth, for O=C(Cc1ccc(/C=C/C(=O)c2ncc[nH]2)cc1)Nc1ccc(Cl)cc1
result: 23.8
